The reported measurements were obtained from PubChem BioAssay AID330.

# Test system: P388 leukemia ip, CD2F1 mice, survival T/C
# Procedure Text: NCI In Vivo Anticancer Drug Screen. Data for tumor model P388 Leukemia (intraperitoneal) in CD2F1 (CDF1) mice
# Condition Label: endpoint: median survival time; dose: 30.0 mg/kg/injection; schedule: Q01DX005 (ip); vehicle: saline with Tween-80; higher = longer survival
Toxic doses and inconclusive results are not listed.
Metric: T/C

Field: example entries. Status: answers known.
[
  {
    "Molecule": "NC(CCl)=NCC1C2CC3CC(C2)CC1C3 (configuration not stated)",
    "T/C": "117 % of control"
  },
  {
    "Molecule": "S=C(/N=N/c1[nH]c2ccccc2c1NNC(=S)NC12CC3CC(CC(C3)C1)C2)NC12CC3CC(CC(C3)C1)C2",
    "T/C": "96 % of control"
  },
  {
    "Molecule": "Oc1ccc(Cl)cc1CN1CCN(Cc2cc(Cl)ccc2O)CC1",
    "T/C": "97 % of control"
  },
  {
    "Molecule": "Cc1no[n+]([O-])c1NC(=O)OCc1ccccc1",
    "T/C": "99 % of control"
  },
  {
    "Molecule": "O=C1OC2C(O)COC23OC(O)CCC13O (configuration not stated)",
    "T/C": "102 % of control"
  }
]

Reported T/C for CCOc1ccc2c(N=[N+]=[N-])cc(C)nc2c1 was 94 % of control

Looking up CCOC(=O)C1=C(C(=O)c2ccc(OC)cc2)C(c2ccc(Cl)cc2Cl)C(C(=O)c2ccc(OC)cc2)=C(C(=O)OCC)N1 , I found its T/C recorded as 96 % of control

====

# Test system: P388 leukemia ip, CD2F1 mice, survival T/C
# Procedure Text: NCI In Vivo Anticancer Drug Screen. Data for tumor model P388 Leukemia (intraperitoneal) in CD2F1 (CDF1) mice
# Condition Label: endpoint: median survival time; dose: 120.0 mg/kg/injection; schedule: Q01DX005 (ip); vehicle: saline with Tween-80; higher = longer survival
Toxic doses and inconclusive results are not listed.
Below is a list of entries, each paired with its recorded T/C value.

[
  {
    "Molecule": "NN1C(=O)CC(c2cccc(Cl)c2)C1=O (stereo unspecified)",
    "System Name": "P388 leukemia ip, CD2F1 mice, survival T/C",
    "T/C": "92 % of control"
  },
  {
    "Molecule": "CN1C(c2ccccc2)=C(C#N)C(=O)CC(c2ccc(Cl)cc2)N1C (stereo unspecified)",
    "System Name": "P388 leukemia ip, CD2F1 mice, survival T/C",
    "T/C": "91 % of control"
  },
  {
    "Molecule": "O=C(CCN1C(=O)c2ccccc2C1=O)Nc1c(I)cc(I)c(C(=O)O)c1I",
    "System Name": "P388 leukemia ip, CD2F1 mice, survival T/C",
    "T/C": "106 % of control"
  },
  {
    "Molecule": "CC(C)(Sc1cc(Cl)c(Cl)c(Cl)c1)C(=O)OCCN1CCOCC1",
    "System Name": "P388 leukemia ip, CD2F1 mice, survival T/C",
    "T/C": "101 % of control"
  },
  {
    "Molecule": "CCOc1ccc(C(C)c2cc3c(cc2O)OCO3)cc1 (stereo unspecified)",
    "System Name": "P388 leukemia ip, CD2F1 mice, survival T/C",
    "T/C": "104 % of control"
  },
  {
    "Molecule": "O=[N+]([O-])c1cc(CNCCO)c(O)c2ncccc12",
    "System Name": "P388 leukemia ip, CD2F1 mice, survival T/C",
    "T/C": "93 % of control"
  }
]

Sure, the documented T/C for COc1nc(NC2OCC(O)C(O)C2O)c(Cl)c(=O)n1C (stereo unspecified) is 90 % of control

The recorded T/C for entry COc1ccc(CCn2cnn3c(=O)c4ccccc4nc3c2=O)cc1OC equals 92 % of control

====

# System: P388 leukemia ip, CD2F1 mice, survival T/C
# Procedure Text: NCI In Vivo Anticancer Drug Screen. Data for tumor model P388 Leukemia (intraperitoneal) in CD2F1 (CDF1) mice
# Condition Label: endpoint: median survival time; dose: 50.0 mg/kg/injection; schedule: Q01DX005 (ip); vehicle: saline with Tween-80; higher = longer survival
Toxic doses and inconclusive results are not listed.
Metric: T/C

[
  {
    "Compound": "COc1ccc(OC)c(/C=N/N=C2\\C(=O)Nc3c(Cl)cc(Cl)cc32)c1",
    "System Name": "P388 leukemia ip, CD2F1 mice, survival T/C",
    "T/C": "97 % of control"
  },
  {
    "Compound": "Cc1ccc(NC(=O)CCC(=O)C(C)C(=O)c2ccccc2)c(C)c1 (stereo not given)",
    "System Name": "P388 leukemia ip, CD2F1 mice, survival T/C",
    "T/C": "99 % of control"
  },
  {
    "Compound": "CCNC(=O)CCC(NS(=O)(=O)c1ccc(NC(=O)c2ccc(Cl)cc2)cc1)C(=O)O (stereo not given)",
    "System Name": "P388 leukemia ip, CD2F1 mice, survival T/C",
    "T/C": "107 % of control"
  }
]

CC(=O)NCCc1ccc(OC(C)=O)c(OC(C)=O)c1 yielded T/C of 99 % of control

Form field T/C, entry CN(C)C1C(=O)C(C(N)=O)=C(O)C2(O)C(=O)C3=C(O)c4c(O)cccc4C(C)(O)C3C(O)C12.[Cl][Sb]([Cl])[Cl] (stereo not given) : 113 % of control

====

# Test system: P388 leukemia ip, CD2F1 mice, survival T/C
# Procedure Text: NCI In Vivo Anticancer Drug Screen. Data for tumor model P388 Leukemia (intraperitoneal) in CD2F1 (CDF1) mice
# Condition Label: endpoint: median survival time; dose: 200.0 mg/kg/injection; schedule: Q01DX001 (ip); vehicle: Klucel (hydroxypropylcellulose) (HPC); higher = longer survival
Toxic doses and inconclusive results are not listed.
Metric: T/C

For reference, reported T/C for Cc1c(N)n[nH]c1-c1ccccc1 stands at 106 % of control

Kindly note the recorded T/C for N=C(N)c1ccc2oc(/C=C/c3nc4ccc(C(=N)N)cc4[nH]3)cc2c1 , which is 96 % of control

Briefly, T/C measured for CC(C)(C)/[N+]([O-])=C/C=C\C=C\C=O : 122 % of control

====

# System: P388 leukemia ip, CD2F1 mice, survival T/C
# Procedure Text: NCI In Vivo Anticancer Drug Screen. Data for tumor model P388 Leukemia (intraperitoneal) in CD2F1 (CDF1) mice
# Condition Label: endpoint: median survival time; dose: 12.5 mg/kg/injection; schedule: Q01DX009 (ip); vehicle: saline; higher = longer survival
Toxic doses and inconclusive results are not listed.
Metric: T/C

[
  {
    "Molecule": "COc1ccc(/C(C#N)=C/c2ccncc2)cc1OC",
    "Reported Measurement": "102 % of control"
  },
  {
    "Molecule": "CC1(O)C=CP(C)(=O)C1 (stereo not given)",
    "Reported Measurement": "108 % of control"
  },
  {
    "Molecule": "COC(=O)C1=C(C(=O)OC)[C]([Hg][CH3])(C(=O)c2ccccc2)N=N1 (stereo not given)",
    "Reported Measurement": "103 % of control"
  },
  {
    "Molecule": "OC1(c2nccc3ccccc23)CCN(CCc2ccccc2)CC1",
    "Reported Measurement": "102 % of control"
  },
  {
    "Molecule": "CC(=O)OC1CCN(C)CC1CCl (stereo not given)",
    "Reported Measurement": "110 % of control"
  },
  {
    "Molecule": "CCOC(=O)NN",
    "Reported Measurement": "111 % of control"
  },
  {
    "Molecule": "CC1CC(N)=NC1C(=O)NCCC#N (stereo not given)",
    "Reported Measurement": "97 % of control"
  },
  {
    "Molecule": "O=N[O-].O=N[O-].[NH2-].[NH2-].[NH2-].[NH2-].[Ni]",
    "Reported Measurement": "105 % of control"
  },
  {
    "Molecule": "COc1cc(C(=O)O)c2c(c1C)OC(=O)c1c(C)cc(O)c(C=O)c1O2",
    "Reported Measurement": "119 % of control"
  }
]

Kindly consider the entry below.
# T/C (molecule: Oc1cc2c(cc1O)[C@H]1c3ccc(O)c(O)c3OC[C@@]1(O)C2 ) is 101 % of control

====

# System: P388 leukemia ip, CD2F1 mice, survival T/C
# Procedure Text: NCI In Vivo Anticancer Drug Screen. Data for tumor model P388 Leukemia (intraperitoneal) in CD2F1 (CDF1) mice
# Condition Label: endpoint: median survival time; dose: 120.0 mg/kg/injection; schedule: Q01DX005 (ip); vehicle: saline with Tween-80; higher = longer survival
Inconclusive results and toxic doses are left out.
Attribute: T/C

Examples with their reported T/C follow.
[
  {
    "Molecule": "Nc1ncnc2nc(-c3ccccc3)[nH]c12",
    "Metric": "T/C",
    "Reported Measurement": "100 % of control"
  },
  {
    "Molecule": "COC(=O)c1nc2[nH]n(-c3ccccc3)c(=O)c2c(C(=O)OC)c1C(C)C(=O)c1ccc(Cl)cc1 (centres undefined)",
    "Metric": "T/C",
    "Reported Measurement": "103 % of control"
  },
  {
    "Molecule": "COc1ccc(/C=N/N2CN(C(C)C(=O)O)P(N(CCO)CCO)N=C2N)cc1OC (centres undefined)",
    "Metric": "T/C",
    "Reported Measurement": "99 % of control"
  }
]

Notebook: O=C1c2ccccc2C(=O)c2c1cccc2N1C(=O)C=CC1=O , T/C read as 95 % of control

// O=C1CSC(c2ccccc2Br)N1c1nncs1 (centres undefined) : T/C value = 97 % of control

Documented T/C of N#CC1=CCc2ccccc2N1C(=O)Oc1ccccc1 : 88 % of control

Reported T/C of CCOc1ccc2c(N=[N+]=[N-])cc(C)nc2c1 : 92 % of control

Field T/C (entry COc1ccc(/C=C2/N=C(c3ccccc3)OC2=O)cc1 ) reads 93 % of control

response.value for O=c1c(-c2cccc(O)c2O)coc2cc(OC3OC(CO)C(O)C(O)C3O)ccc12 (centres undefined) (field: T/C) = 100 % of control

// recorded T/C for COc1c2c(c(OC)c3c1C(=O)c1ccccc1C3=O)C(=O)CCC2 : 87 % of control
